TEST_SYSTEM: UniProt P36544
RUN_DESCRIPTION: Automated patch-clamp electrophysiology functional assay (Assay A)
Type: cell-based
MEASUREMENT_PARAMETERS: electrophysiology EC50 values; IonFlux HT whole-cell population patch, HEK cells expressing human α7/RIC-3, 40 μM acetylcholine
As shown below, each of these compounds has a reported pEC50 value.
In simple prose, pEC50 is minus the logarithm base ten of a concentration in moles per litre.

Checklist item: pEC50 tested on UniProt P36544, entry CCOc1ccc([C@H](COC)NC(=O)C2C3Oc4ccc(F)cc4C32)cc1 (some centres unmarked) [Example B5] , value?
6.12

Checklist item: pEC50 tested on UniProt P36544, entry CCOc1ccc([C@H](COC)NC(=O)C2C3Oc4c(Cl)cccc4C32)cc1 (some centres unmarked) [Example B7] , value?
6.32

Checklist item: pEC50 tested on UniProt P36544, entry O=C(NCCc1ccccc1)C1C2Oc3ccc(F)cc3C21 (centres unmarked) [Example C11] , value?
5.66

Checklist item: pEC50 tested on UniProt P36544, entry CCOc1ccc([C@H](COC)NC(=O)C2C3Oc4ccccc4C32)cc1 (some centres unmarked) [Example B1] , value?
5.92

Checklist item: pEC50 tested on UniProt P36544, entry O=C(N[C@H]1COCc2ccc(F)cc21)C1C2Oc3ccc(F)cc3C21 (some centres unmarked) [Example C1] , value?
5.32

###

TEST_SYSTEM: human α7 nAChR (Homo sapiens (Human), UniProt P36544)
Sequence (P36544 23-502): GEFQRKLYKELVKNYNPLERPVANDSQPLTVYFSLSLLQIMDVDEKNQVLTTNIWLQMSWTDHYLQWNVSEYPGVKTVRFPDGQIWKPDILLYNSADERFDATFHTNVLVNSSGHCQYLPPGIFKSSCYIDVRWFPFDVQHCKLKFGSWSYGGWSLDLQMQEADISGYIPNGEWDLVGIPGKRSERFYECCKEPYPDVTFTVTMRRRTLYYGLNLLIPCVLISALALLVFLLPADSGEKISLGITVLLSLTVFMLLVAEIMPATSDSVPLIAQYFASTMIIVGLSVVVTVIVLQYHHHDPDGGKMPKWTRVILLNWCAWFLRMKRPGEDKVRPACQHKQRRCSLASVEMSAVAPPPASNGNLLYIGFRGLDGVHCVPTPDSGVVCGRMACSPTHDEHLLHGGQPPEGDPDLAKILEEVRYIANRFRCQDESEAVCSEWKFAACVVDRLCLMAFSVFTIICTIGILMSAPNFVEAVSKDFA
RUN_DESCRIPTION: Automated patch-clamp electrophysiology functional assay (Assay A)
Format: cell-based
MEASUREMENT_PARAMETERS: potency class; IonFlux HT whole-cell population patch, HEK cells expressing human α7/RIC-3, 40 μM acetylcholine
EXPERIMENTAL_ENDPOINT: EC50

In [3]: df
Out[3]:
                                   compound  experimental_endpoint         result
0  O=C(NCc1cc(Cl)ccc1F)C1C2Oc3ccc(F)cc3C21 (centres unmarked) [Example C14]                   EC50    0.5 to 5 µM
1  CCOc1ccc([C@H](COC)NC(=O)C2C3Oc4c(Cl)cccc4C32)cc1 (some centres unmarked) [Example B7]                   EC50  0.1 to 0.5 µM
2  O=C(NCc1noc(-c2ccccc2)n1)C1C2Oc3ccc(F)cc3C21 (centres unmarked) [Example C49]                   EC50  0.1 to 0.5 µM

Need EC50 of Cc1cc(F)cc(CNC(=O)C2C3Oc4ccc(F)cc4C32)c1 (centres unmarked) [Example C24] , thanks.
0.5 to 5 µM

Need EC50 of CCOc1ccc([C@@H](NC(=O)C2C3Oc4ccc(F)cc4C32)C(F)F)cn1 (some centres unmarked) [Example C5] , thanks.
0.5 to 5 µM

Need EC50 of O=C(NCc1n[nH]c2c1CCCCC2)[C@H]1[C@@H]2Oc3ccc(F)cc3[C@@H]21 [Example C33] , thanks.
0.5 to 5 µM

Need EC50 of CCOc1ccc([C@H](COC)NC(=O)C2C3Oc4ccc(-c5cn(Cc6ccccc6)nn5)cc4C32)cc1 (single isomer, unassigned) [Example 6] , thanks.
0.5 to 5 µM

Need EC50 of CCOc1ccc([C@H](COC)NC(=O)C2C3Oc4ccc(-c5c(C)noc5C)cc4C32)cc1 (some centres unmarked) [Example B10] , thanks.
0.5 to 5 µM

Need EC50 of CCOc1ccc([C@H](COC)NC(=O)C2C3Oc4cc(OC)ccc4C32)cc1 (some centres unmarked) [Example B17] , thanks.
0.5 to 5 µM

Need EC50 of CCOc1ccc(C2(NC(=O)C3C4COc5ccccc5C43)CCC2)cn1 (centres unmarked) [Example A11] , thanks.
0.5 to 5 µM

Need EC50 of COc1ccc(-c2noc(CNC(=O)C3C4Oc5ccc(F)cc5C43)n2)cn1 (centres unmarked) [Example C51] , thanks.
0.5 to 5 µM

Need EC50 of O=C(NCc1cccc(-c2ncco2)c1)C1C2Oc3ccc(F)cc3C21 (centres unmarked) [Example C35] , thanks.
0.5 to 5 µM

Need EC50 of CCOc1ccc([C@H](COC)NC(=O)C2C3Cc4ccccc4C32)cc1 (single isomer, unassigned) [Example 2] , thanks.
≤ 0.1 µM

Need EC50 of COc1cc([C@@H](NC(=O)C2C3COc4ccc(F)cc4C32)C(F)(F)F)ccn1 (some centres unmarked) [Example 4] , thanks.
0.5 to 5 µM

Need EC50 of COc1ccc(-c2cc(CNC(=O)C3C4Oc5ccc(F)cc5C43)on2)cc1 (centres unmarked) [Example C44] , thanks.
5 to 50 µM

Need EC50 of CCOc1ccc([C@H](COC)NC(=O)C2C3Oc4ccccc4C32)cc1 (some centres unmarked) [Example B1] , thanks.
0.5 to 5 µM

Need EC50 of O=C(NCc1nc2ccccc2s1)C1C2Oc3ccc(F)cc3C21 (centres unmarked) [Example C28] , thanks.
0.5 to 5 µM

###

TEST_SYSTEM: human α7 nAChR (Homo sapiens (Human), UniProt P36544)
RUN_DESCRIPTION: Automated patch-clamp electrophysiology functional assay (Assay A)
Format: cell-based
MEASUREMENT_PARAMETERS: potency class; IonFlux HT whole-cell population patch, HEK cells expressing human α7/RIC-3, 40 μM acetylcholine
EXPERIMENTAL_ENDPOINT: EC50

Here's what some known entries look like.
In [3]: df
Out[3]:
                                   molecule                               test_system  experimental_endpoint            result
0  O=C(NCc1ccc(F)cc1F)C1C2Oc3ccc(F)cc3C21 (stereo not drawn)  human α7 nAChR (Homo sapiens (Human), UniProt P36544)                   EC50    500 to 5000 nM
1  O=C(NCc1nc(Cc2ccccc2)no1)C1C2Oc3ccc(F)cc3C21 (stereo not drawn)  human α7 nAChR (Homo sapiens (Human), UniProt P36544)                   EC50  5000 to 50000 nM

Then there is this molecule:
Checklist item: EC50 tested on human α7 nAChR (Homo sapiens (Human), UniProt P36544), entry CCOc1ccc([C@H](COC)NC(=O)C2C3Oc4c(Br)cccc4C32)cc1 (stereo partly drawn) [Example B9] , value?
100 to 500 nM

###

As shown below, each of these compounds has a reported pEC50 value.
TEST_SYSTEM: UniProt P36544
RUN_DESCRIPTION: Automated patch-clamp electrophysiology functional assay (Assay A)
Format: cell-based
MEASUREMENT_PARAMETERS: potency class; IonFlux HT whole-cell population patch, HEK cells expressing human α7/RIC-3, 40 μM acetylcholine
pEC50: −log10 of the molar value.

In [3]: df
Out[3]:
                                   compound        result
0  CCOc1ccc([C@@H](NC(=O)C2C3Oc4ccc(F)cc4C32)C(F)F)cn1 (some centres unmarked) [Example C9]  5.30 to 6.30
1  O=C(NCc1cccc(N2CCCC2)n1)C1C2Oc3ccc(F)cc3C21 (centres unmarked)  5.30 to 6.30
2  CCOc1ccc([C@H](COC)NC(=O)C2C3Oc4c(Cl)cccc4C32)cc1 (some centres unmarked) [Example B6]  6.30 to 7.00
3  O=C(N[C@@H](C(F)F)C1CCCCC1)C1C2COc3ccc(F)cc3C21 (some centres unmarked)  5.30 to 6.30

Then there is this compound:
Need pEC50 of CC(NC(=O)C1C2Oc3ccc(F)cc3C21)c1ccno1 (centres unmarked) , thanks.
5.30 to 6.30

###

TEST_SYSTEM: human α7 nAChR (Homo sapiens (Human))
RUN_DESCRIPTION: Automated patch-clamp electrophysiology functional assay (Assay A)
Format: cell-based
MEASUREMENT_PARAMETERS: electrophysiology EC50 values; IonFlux HT whole-cell population patch, HEK cells expressing human α7/RIC-3, 40 μM acetylcholine
EXPERIMENTAL_ENDPOINT: pEC50
In simple prose, pEC50 is minus the logarithm base ten of a concentration in moles per litre.

Here's what some known entries look like.
In [3]: df
Out[3]:
                                   molecule  result_number
0  CCOc1ccc([C@H](COC)NC(=O)C2C3Oc4c(Br)cccc4C32)cc1 (some centres unmarked) [Example B9]           6.41
1  COc1cccc(OC)c1CNC(=O)C1C2COc3ccccc3C21 (centres unmarked)           5.96
2  O=C(NCc1noc(-c2ccccc2)n1)C1C2Oc3ccc(F)cc3C21 (centres unmarked)           6.57
3  CCOc1ccc(C2(NC(=O)C3C4COc5ccccc5C43)CCC2)cn1 (centres unmarked)           6.21

Need pEC50 of CCOc1ccc([C@H](COC)NC(=O)C2C3Oc4ccc(-c5cn(Cc6ccccc6)nn5)cc4C32)cc1 (single isomer, unassigned) , thanks.
5.96

Need pEC50 of COC(=O)C(NC(=O)C1C2Oc3ccc(F)cc3C21)c1cccc(Cl)c1 (centres unmarked) , thanks.
5.74

Need pEC50 of CC(C)(NC(=O)C1C2COc3ccc(F)cc3C21)c1cccc(Cl)c1 (centres unmarked) , thanks.
5.60

Need pEC50 of O=C(N[C@@H](CO)C1CCCCC1)C1C2Sc3ccccc3C21 (some centres unmarked) , thanks.
5.64
